Target: beta-catenin/TCF4 engagement (Homo sapiens, UniProt P35222)
Construct: expressed in transfected cells; host or cells: HEK293
Sequence (P35222 whole entry): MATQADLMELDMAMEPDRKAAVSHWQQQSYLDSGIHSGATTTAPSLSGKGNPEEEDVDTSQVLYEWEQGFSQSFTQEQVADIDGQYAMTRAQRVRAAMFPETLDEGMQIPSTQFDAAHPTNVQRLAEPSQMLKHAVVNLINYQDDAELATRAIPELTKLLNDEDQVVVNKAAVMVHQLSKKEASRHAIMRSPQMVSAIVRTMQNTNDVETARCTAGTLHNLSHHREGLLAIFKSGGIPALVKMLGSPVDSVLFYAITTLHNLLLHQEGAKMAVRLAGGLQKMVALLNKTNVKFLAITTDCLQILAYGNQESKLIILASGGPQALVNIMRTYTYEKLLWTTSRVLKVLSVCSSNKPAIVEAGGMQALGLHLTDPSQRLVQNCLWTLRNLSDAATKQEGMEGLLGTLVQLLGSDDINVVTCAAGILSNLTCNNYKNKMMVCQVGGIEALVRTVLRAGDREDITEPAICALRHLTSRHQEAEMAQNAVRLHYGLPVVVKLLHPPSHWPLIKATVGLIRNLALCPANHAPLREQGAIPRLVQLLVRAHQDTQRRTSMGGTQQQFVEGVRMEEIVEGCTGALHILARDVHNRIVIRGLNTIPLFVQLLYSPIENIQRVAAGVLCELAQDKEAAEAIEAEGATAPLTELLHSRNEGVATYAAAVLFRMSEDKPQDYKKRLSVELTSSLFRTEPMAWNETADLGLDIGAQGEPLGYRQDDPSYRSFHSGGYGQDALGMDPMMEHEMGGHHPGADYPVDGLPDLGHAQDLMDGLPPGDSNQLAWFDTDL
Test: Nano-BRET target engagement assay (B-cat-Halo & TCF4-Luc in HEK293 cells)
Format: cell-based
Settings: read-out: NanoBRET Abs IC50
Examples of compounds with documented pIC50 follow.
In textbook form, pIC50 equals minus log to base ten of the concentration in mol/L.

COMPOUND: CC(=O)N1CCC[C@]12CC=CCCCC1(CCCC=CCCCOC(=O)N3CC[C@@](C(=O)N[C@@H](Cc4ccccc4)C(=O)N[C@@H](Cc4csc5ccccc45)C(=O)N[C@@H](CO)C(N)=O)(C3)NC(=O)[C@H](CO)NC(=O)[C@H](Cc3ccccc3)NC(=O)[C@H](C)NC(=O)[C@H](C)NC(=O)[C@H](CC(=O)O)NC(=O)[C@H](CC(=O)O)NC1=O)NC(=O)[C@H](CC1CCCCC1)NC(=O)[C@H](CC(=O)O)NC2=O (some centres unmarked)
MEASURE_NAME: pIC50
RECORDED_VALUE: 4.61

Look up pIC50: C#CCOCCC(=O)NCCCC[C@H](NC(=O)[C@H](CCC(N)=O)NC(=O)[C@H](Cc1csc2ccccc12)NC(=O)[C@H](Cc1ccsc1)NC(=O)[C@]12CCN(C1)C(=O)OCCCC=CCCCC1(CCCC=CC[C@]3(CCCN3C(C)=O)C(=O)N[C@@H](CC(=O)O)C(=O)N[C@@H](CC(C)(C)C)C(=O)N1)C(=O)N[C@@H](CC(=O)O)C(=O)N[C@@H](CC(=O)O)C(=O)N[C@@H](C)C(=O)N[C@@H](C)C(=O)N[C@@H](Cc1ccccc1)C(=O)N[C@@H](CC(N)=O)C(=O)N2)C(N)=O (some centres unmarked)
4.48

---

Target: full-length beta-Catenin (Uniprot ID P35222) (Homo sapiens, UniProt P35222)
Construct: 10 nM full-length beta-Catenin (Uniprot ID P35222)
Sequence (P35222 whole entry): as above
Assay: Fluorescence polarization IC50 (beta-catenin / 5FAM-TCF4 10-53 competition)
Format: binding
Conditions: fluorescence polarization; read-out: beta-Catenin FP IC50
MEASURE_NAME: IC50

COMPOUND: CC(=O)N1CCC[C@]12CC=CCCCC1(CCCC=CCCCOC(=O)N3CC[C@@](C(=O)N[C@@H](Cc4ccsc4)C(=O)N[C@@H](Cc4csc5ccccc45)C(=O)N[C@@H](CCC(N)=O)C(N)=O)(C3)NC(=O)[C@H](CCCN3CCC(F)(F)CC3)NC(=O)[C@H](Cc3ccccc3)NC(=O)[C@H](C)NC(=O)[C@H](C)NC(=O)[C@H](CC(=O)O)NC(=O)[C@H](CC(=O)O)NC1=O)NC(=O)[C@H](CC(C)(C)C)NC(=O)[C@H](CC(=O)O)NC2=O (stereo partly drawn) [I-1486]
RECORDED_VALUE: 0.005 µM

COMPOUND: CC(=O)N1CCC[C@]12CC=CCCCC1(CCCC=CCCCCCC[C@@](C)(C(=O)N[C@@H](Cc3cccc(F)c3)C(=O)N[C@@H](Cc3csc4ccccc34)C(N)=O)NC(=O)[C@H](CCC(N)=O)NC(=O)[C@H](Cc3ccsc3)NC(=O)[C@H](C)NC(=O)[C@H](C)NC(=O)[C@H](CCC(=O)O)NC(=O)[C@H](CC(=O)O)NC1=O)NC(=O)[C@H](C)NC(=O)[C@H](CC(=O)O)NC2=O (stereo partly drawn) [I-431]
RECORDED_VALUE: 1.32 µM

Now examine the next entry.
Look up IC50: CC(=O)N1CCC[C@]12CC=CCCCC1(CCCC=CCCCOC(=O)N3CC[C@@](C(=O)N[C@@H](Cc4ccsc4)C(=O)N[C@@H](Cc4csc5ccccc45)C(=O)N[C@@H](CCC(N)=O)C(N)=O)(C3)NC(=O)[C@H](CCCNC(=N)N)NC(=O)[C@H](Cc3ccccc3)NC(=O)[C@H](C)NC(=O)[C@H](C)NC(=O)[C@H]([C@@H](C)O)NC(=O)[C@H](CC(N)=O)NC1=O)NC(=O)[C@H](CC(C)(C)C)NC(=O)[C@H](CC(=O)O)NC2=O (stereo partly drawn) [I-1882]
0.397 µM

---

Examples of molecules with documented chromatographic logD follow.
Test: CHI Log D procedure
Format: physicochemical
Conditions: pH 7.4, CHI Log D
Please reply with the number alone, leaving off any unit.

MOLECULE: CC(=O)N1CCC[C@]12CC=CCCCC1(CCCC=CCCCOC(=O)N3CC[C@@](C(=O)N[C@@H](Cc4ccsc4)C(=O)N[C@@H](Cc4csc5ccccc45)C(=O)N[C@@H](CCC(N)=O)C(=O)N[C@@H](CCCCNC(=O)C45CC6(C)CC(C)(CC(C)(C6)C4)C5)C(N)=O)(C3)NC(=O)[C@H](CC(N)=O)NC(=O)[C@H](Cc3ccccc3)NC(=O)[C@H](C)NC(=O)[C@H](C)NC(=O)[C@H](CC(=O)O)NC(=O)[C@H](CC(=O)O)NC1=O)NC(=O)[C@H](CC(C)(C)C)NC(=O)[C@H](CC(=O)O)NC2=O (some centres unmarked)
chromatographic logD: 3.08

Look up chromatographic logD: CC(=O)N1CCC[C@]12CC=CCCCC1(CCCC=CCCCOC(=O)N3CC[C@@](C(=O)N[C@@H](Cc4ccccc4F)C(=O)N[C@@H](Cc4csc5ccccc45)C(=O)N[C@@H](CO)C(N)=O)(C3)NC(=O)[C@H](CO)NC(=O)[C@H](Cc3ccccc3)NC(=O)[C@H](C)NC(=O)[C@H](C)NC(=O)[C@H](CC(=O)O)NC(=O)[C@H](CC(=O)O)NC1=O)NC(=O)[C@H](CC1CCCCC1)NC(=O)[C@H](CC(=O)O)NC2=O (some centres unmarked)
2.39

---

Examples of molecules with documented pIC50 follow.
Target: full-length beta-Catenin (Uniprot ID P35222) (Homo sapiens)
Construct: 10 nM full-length beta-Catenin (Uniprot ID P35222)
Test: Fluorescence polarization IC50 (beta-catenin / 5FAM-TCF4 10-53 competition)
Type: binding
Settings: fluorescence polarization; read-out: beta-Catenin FP IC50
In textbook form, pIC50 equals minus log to base ten of the concentration in mol/L.

MOLECULE: CC(=O)N1CCC[C@]12CC=CCCCC1(CCCC=CCCCOC(=O)N3CC[C@@](C(=O)N[C@@H](Cc4ccsc4)C(=O)N[C@@H](Cc4csc5ccccc45)C(=O)N[C@@H](CCC(N)=O)C(N)=O)(C3)NC(=O)[C@H](CC(C)C)NC(=O)[C@H](Cc3ccccc3)NC(=O)[C@H](C)NC(=O)[C@H](C)NC(=O)[C@H](CCC(N)=O)NC(=O)[C@H](CC(=O)O)NC1=O)NC(=O)[C@H](CC(C)(C)C)NC(=O)[C@H](CC(=O)O)NC2=O (some centres unmarked)
pIC50: 7.59

Now examine the next entry.
Look up pIC50: CC[C@H](C)[C@@H]1NC(=O)[C@H](CC(=O)O)NC(=O)[C@]2(CC=CCCCC3(CCCC=CCCCCCC[C@@](C)(C(=O)N[C@@H](Cc4ccccc4)C(=O)N[C@@H](Cc4csc5ccccc45)C(=O)N[C@@H](CCC(N)=O)C(N)=O)NC(=O)[C@H](CCC(N)=O)NC(=O)[C@H](Cc4ccccc4)NC(=O)[C@H](C)NC(=O)[C@H](C)NC(=O)[C@H](CN(CC)CC(=O)O)NC(=O)[C@H](CC(=O)O)NC3=O)NC1=O)CCCN2C(C)=O (some centres unmarked) [I-609]
7.10

---

Molecular target: full-length beta-Catenin (Uniprot ID P35222) (Homo sapiens)
Construct: 10 nM full-length beta-Catenin (Uniprot ID P35222)
Assay: Fluorescence polarization IC50 (beta-catenin / 5FAM-TCF4 10-53 competition)
Assay type: binding
Conditions: fluorescence polarization; read-out: beta-Catenin FP IC50
MEASURE_NAME: IC50 (nM)
Could you give me the number in nM? Just the number is fine.

Please review the entries below; each comes with its answer.
MOLECULE: CC(=O)N1CCC[C@]12CC=CCCCC1(CCCC=CCCCCCC[C@@](C)(C(=O)N[C@@H](Cc3ccccc3)C(=O)N[C@@H](Cc3csc4ccccc34)C(=O)N[C@@H](Cc3c[nH]cn3)C(N)=O)NC(=O)[C@H](CC(N)=O)NC(=O)[C@H](Cc3ccccc3)NC(=O)[C@H](C)NC(=O)[C@H](C)NC(=O)[C@H](CC(=O)O)NC(=O)[C@H](CC(=O)O)NC1=O)NC(=O)[C@H](C)NC(=O)[C@H](CC(=O)O)NC2=O (stereo partly drawn) [I-465]
MEASUREMENT_TARGET: full-length beta-Catenin (Uniprot ID P35222) (Homo sapiens)
IC50 / nM: 81
--
MOLECULE: CC(=O)N1CCC[C@]12CC=CCCCC1(CCCC=CCCCOC(=O)N3CC[C@@](C(=O)N[C@@H](Cc4ccccc4)C(=O)N[C@@H](Cc4csc5ccccc45)C(=O)N[C@@H](CCCCN)C(N)=O)(C3)NC(=O)[C@H](CC(C)C)NC(=O)[C@H](Cc3ccccc3)NC(=O)[C@H](C)NC(=O)[C@H](CCCCNC(C)C)NC(=O)[C@H](CCC(N)=O)NC(=O)[C@H](CC(=O)O)NC1=O)NC(=O)[C@H](CC1CCCCC1)NC(=O)[C@H](CC(=O)O)NC2=O (stereo partly drawn) [I-2429]
MEASUREMENT_TARGET: full-length beta-Catenin (Uniprot ID P35222) (Homo sapiens)
IC50 / nM: 10

Now examine the next entry.
Look up IC50: CC[C@H](C)[C@@H]1NC(=O)[C@H](CC(=O)O)NC(=O)[C@]2(CC=CCCCC3(CCCC=CCCCCCC[C@@](C)(C(=O)N[C@@H](Cc4ccccc4)C(=O)N[C@@H](Cc4csc5ccccc45)C(=O)N[C@@H](CCC(N)=O)C(N)=O)NC(=O)[C@H](CCC(N)=O)NC(=O)[C@H](Cc4ccccc4)NC(=O)[C@H](C)NC(=O)[C@H](C)NC(=O)[C@H](CCC(=O)O)NC(=O)[C@H](CC(=O)O)NC3=O)NC1=O)CCCN2C(C)=O (stereo partly drawn) [I-407]
30
